These measurements were taken from patent US8802597B2.

- System: barnyardgrass (Echinochloa crus-galli)
- protocol.notes: Test C flooded paddy test
- Assay type: in vivo
- condition: Flood, 125 g ai/ha; scale 0 to 100
Kindly supply the reported Plant response rating, Barnyardgrass values for the records listed here.
Give the figure only, with no unit attached.

Field Plant response rating, Barnyardgrass (entry `CC(C)OC(=O)c1nc(C2CC2)nc(N)c1Br` ) reads 0

Input `CCCOC(=O)c1nc(C2CC2)nc(N)c1Br` . Output Plant response rating, Barnyardgrass: 0

So, `CC(C)COC(=O)c1nc(C2CC2)nc(N)c1Br` ? Its Plant response rating, Barnyardgrass was 0

Reported Plant response rating, Barnyardgrass of `COC(=O)c1nc(C2CC2)nc(N)c1Br` : 20

###

- Test system: winter barley (Hordeum vulgare)
- protocol.notes: Test C postemergence
- Type: in vivo
- condition: 31 g ai/ha
experimental.endpoint: Plant response rating (scale of 0 to 100), Barley
Kindly provide the number alone.

// assay winter barley (Hordeum vulgare), entry Nc1nc(-c2ccc(Br)cc2)nc(C(=O)O)c1Br [Compound 136] , Plant response rating (scale of 0 to 100), Barley value = 50

Readout Plant response rating (scale of 0 to 100), Barley for Nc1nc(C2CC2)nc(C(=O)OCc2ccccc2)c1Cl [Compound 78] , test system winter barley (Hordeum vulgare), was 5

Entry CCOC(=O)c1nc(-c2ccc(Cl)cc2)nc(N)c1Cl [Compound 64] , winter barley (Hordeum vulgare) data, Plant response rating (scale of 0 to 100), Barley value: 20

Entry Nc1nc(-c2ccc(Cl)cc2)nc(C(=O)O)c1Cl [Compound 65] under winter barley (Hordeum vulgare) had Plant response rating (scale of 0 to 100), Barley of 40

Bench note, winter barley (Hordeum vulgare): CNc1nc(C2CC2)nc(C(=O)OC)c1Cl [Compound 79] , Plant response rating (scale of 0 to 100), Barley reads 30

Value sought: Plant response rating (scale of 0 to 100), Barley, system winter barley (Hordeum vulgare), item COC(=O)c1nc(C2CC2)nc(N)c1Br [Compound 2] . Result: 0

Bench note, winter barley (Hordeum vulgare): CCOC(=O)C(Cl)(Cl)c1nc(C2CC2)nc(N)c1Br [Compound 34] , Plant response rating (scale of 0 to 100), Barley reads 20

Record COC(=O)c1nc(-c2ccc(Br)cc2)nc(N)c1Br [Compound 129] / winter barley (Hordeum vulgare), Plant response rating (scale of 0 to 100), Barley recorded as 40

Tested system winter barley (Hordeum vulgare); Plant response rating (scale of 0 to 100), Barley recorded for COC(=O)c1nc(C(C)C)nc(N)c1Br [Compound 3] was 0

###

- System: giant foxtail (Setaria faberii)
- protocol.notes: Test B pre/postemergence
- Format: in vivo
- condition: Setaria faberi, pre-emergence, Preemergence, 125 g ai/ha; scale 0 to 100 (0 no effect, 100 complete control); read-out: Plant response rating, Foxtail, Giant
Please respond with reported pest or weed control at 125 g/ha for every item in the list.
Quick note: give the figure in %, leave out the unit.

The value of pest or weed control at 125 g/ha measured for the compound `CCOC(=O)c1nc(C2CC2)nc(N)c1F` turned out to be 10

Please fill in: pest or weed control at 125 g/ha reported for `COC(=O)c1nc(-c2ccccc2)nc(N)c1Br` = 0

# pest or weed control at 125 g/ha of `Nc1nc(C2CC2)nc(CO)c1Br` = 0

The value of pest or weed control at 125 g/ha measured for the compound `CCOC(=O)c1nc(C(C)(C)C)nc(N)c1Br` turned out to be 0

`COC(=O)c1nc(C2CC2)nc(N)c1Br` yielded pest or weed control at 125 g/ha of 30

Short answer for `CCOC(=O)c1nc(-c2ccc(Br)cc2)nc(N)c1Cl` : pest or weed control at 125 g/ha was 20

The recorded pest or weed control at 125 g/ha for entry `CNc1nc(C2CC2)nc(C(=O)OC)c1Br` equals 0

Entry `CCOC(=O)c1nc(C2CC2)nc(NN)c1Br` ; pest or weed control at 125 g/ha = 0
